These measurements were taken from patent US20210206877A1.

# assay target: BACE1 endogenous to primary cortical neurons from E16.5 CD1 mice (mouse, UniProt P56818 46-501)
# Sequence (P56818 46-501): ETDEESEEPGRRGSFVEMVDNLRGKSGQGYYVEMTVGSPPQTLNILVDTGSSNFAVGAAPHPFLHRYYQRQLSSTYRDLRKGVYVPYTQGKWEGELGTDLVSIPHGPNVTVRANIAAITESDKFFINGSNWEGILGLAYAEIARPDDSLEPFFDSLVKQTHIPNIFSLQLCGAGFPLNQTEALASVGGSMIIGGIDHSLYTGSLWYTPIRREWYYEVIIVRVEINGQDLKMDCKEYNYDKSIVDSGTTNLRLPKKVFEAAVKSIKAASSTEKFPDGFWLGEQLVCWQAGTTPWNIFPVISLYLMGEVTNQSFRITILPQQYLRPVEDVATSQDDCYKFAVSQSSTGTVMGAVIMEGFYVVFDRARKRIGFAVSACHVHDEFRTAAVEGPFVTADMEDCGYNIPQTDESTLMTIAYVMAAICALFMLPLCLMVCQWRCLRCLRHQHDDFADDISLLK
# assay info: cell-based or functional assay
Record form. Attribute: max % inhibition, Abeta x-40 in mouse cortical neurons. Fill in for each entry.
Numbers only, in %.

# binder, numeric readout
data = [
    ("5747 (antibody, V domains shown) VH: QLQLQESGPGLVKPSETLSLTCTVSGGSISSSSYYWGWIRQPPGKGLEWIGNIYYSGSTYYNPSLKSRVTISVDTSKNQFSLKLSSVTAADTAVYYCARLGHGYSYFDLWGRGTLVTVSS VL: EIVLTQSPATLSLSPGERATLSCRASQSVSSYLAWYQQKPGQAPRLLIYDASNRATGIPARFSGSGSGTDFTLTISSLEPEDFAVYYCQQVYLWPPRTFGGGTKVEIK", 74),
    ("5644 (antibody, V domains shown) VH: QLQLQESGPGLVKPSETLSLTCTVSGGSISSSSYYWGWIRQPPGKGLEWIGSIYYSGSTYYNPSLKSRVTISVDTSKNQFSLKLSSVTAADTAVYYCARVGHGISYFDLWGRGTLVTVSS VL: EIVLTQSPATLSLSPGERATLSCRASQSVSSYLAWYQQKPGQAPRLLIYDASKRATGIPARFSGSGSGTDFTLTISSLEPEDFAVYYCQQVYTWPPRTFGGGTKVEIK", 72),
    ("5891 (antibody, V domains shown) VH: QVQLVQSGAEVKKPGSSVKVSCKASGGTFSSYAISWVRQAPGQGLEWMGNIIPIFGPANYAQKFQGRVTITADESTSTAYMELSSLRSEDTAVYYCARSGGTKYGMLDVWGQGTMVTVSS VL: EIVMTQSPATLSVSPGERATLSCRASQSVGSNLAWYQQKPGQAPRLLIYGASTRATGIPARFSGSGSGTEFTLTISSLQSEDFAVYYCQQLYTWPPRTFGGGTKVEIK", 78),
]

Give me max % inhibition, Abeta x-40 in mouse cortical neurons for each of these binders, listed below.
1. 5893 (antibody, V domains shown) VH: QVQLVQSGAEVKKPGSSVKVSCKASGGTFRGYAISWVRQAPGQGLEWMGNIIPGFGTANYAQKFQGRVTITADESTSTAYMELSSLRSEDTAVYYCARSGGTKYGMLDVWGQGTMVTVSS VL: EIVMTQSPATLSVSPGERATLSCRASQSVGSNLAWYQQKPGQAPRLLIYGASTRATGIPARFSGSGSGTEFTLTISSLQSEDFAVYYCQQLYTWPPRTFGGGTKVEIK
2. 5887 (antibody, V domains shown) VH: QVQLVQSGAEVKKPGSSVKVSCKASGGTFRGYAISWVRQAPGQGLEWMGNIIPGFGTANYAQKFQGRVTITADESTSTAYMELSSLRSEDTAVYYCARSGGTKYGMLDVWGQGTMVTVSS VL: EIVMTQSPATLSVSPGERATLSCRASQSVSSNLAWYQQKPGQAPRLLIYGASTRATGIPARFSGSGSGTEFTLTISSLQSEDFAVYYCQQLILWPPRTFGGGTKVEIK
3. 5892 (antibody, V domains shown) VH: QVQLVQSGAEVKKPGSSVKVSCKASGGTFSSYAISWVRQAPGQGLEWMGNIIPIFGTATYAQKFQGRVTITADESTSTAYMELSSLRSEDTAVYYCARSGGTKYGMLDVWGQGTMVTVSS VL: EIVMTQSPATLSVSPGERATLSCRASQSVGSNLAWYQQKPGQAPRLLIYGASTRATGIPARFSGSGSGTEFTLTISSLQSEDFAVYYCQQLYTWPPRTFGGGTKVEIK
4. 5896 (antibody, V domains shown) VH: QLQLQESGPGLVKPSETLSLTCTVSGGSISSSSYYWGWIRQPPGKGLEWIGSIYRSGSTYYNPSLKSRVTISVDTSKNQFSLKLSSVTAADTAVYYCARVGHGISYFDLWGRGTLVTVSS VL: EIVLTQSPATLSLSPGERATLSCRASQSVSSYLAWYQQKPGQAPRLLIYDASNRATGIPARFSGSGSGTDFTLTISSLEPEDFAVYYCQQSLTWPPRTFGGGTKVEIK

1: 73; 2: 75; 3: 73; 4: 65
